These data points were gathered from BindingDB's records for doi:10.1021/acsmedchemlett.8b00149.

Biological target: Free fatty acid receptor 1 (Homo sapiens, UniProt O14842)
Sequence (O14842 whole entry): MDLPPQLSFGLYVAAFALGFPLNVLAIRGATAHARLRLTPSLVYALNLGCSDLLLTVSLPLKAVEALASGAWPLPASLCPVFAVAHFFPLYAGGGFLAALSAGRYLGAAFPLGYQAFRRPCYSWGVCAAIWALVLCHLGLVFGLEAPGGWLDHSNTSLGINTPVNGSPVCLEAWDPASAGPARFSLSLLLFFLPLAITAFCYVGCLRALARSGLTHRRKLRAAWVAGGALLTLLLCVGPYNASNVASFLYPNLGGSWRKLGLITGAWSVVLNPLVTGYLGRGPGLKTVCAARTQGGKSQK
Assay: Agonist activity at recombinant human GPR40 expressed in HEK293 cells assessed as increase in IP1 accumulation measured after 60 mins by HTRF assay
measured.endpoint: pEC50
Note: pEC50 values are expressed as the negative base-10 logarithm of concentration in M.

query: Form: Entry = COc1cc(-c2cnc(C3CCc4ccc([C@H](C5CC5)[C@H](C)C(=O)O)cc4O3)c(F)c2)c(F)cn1 (stereo partly specified) | System = Free fatty acid receptor 1 (Homo sapiens, UniProt O14842) | pEC50 = ____
result: 8.80
